# assayTarget: human TRPA1 (Homo sapiens (Human), UniProt O75762)
# Sequence (O75762 whole entry): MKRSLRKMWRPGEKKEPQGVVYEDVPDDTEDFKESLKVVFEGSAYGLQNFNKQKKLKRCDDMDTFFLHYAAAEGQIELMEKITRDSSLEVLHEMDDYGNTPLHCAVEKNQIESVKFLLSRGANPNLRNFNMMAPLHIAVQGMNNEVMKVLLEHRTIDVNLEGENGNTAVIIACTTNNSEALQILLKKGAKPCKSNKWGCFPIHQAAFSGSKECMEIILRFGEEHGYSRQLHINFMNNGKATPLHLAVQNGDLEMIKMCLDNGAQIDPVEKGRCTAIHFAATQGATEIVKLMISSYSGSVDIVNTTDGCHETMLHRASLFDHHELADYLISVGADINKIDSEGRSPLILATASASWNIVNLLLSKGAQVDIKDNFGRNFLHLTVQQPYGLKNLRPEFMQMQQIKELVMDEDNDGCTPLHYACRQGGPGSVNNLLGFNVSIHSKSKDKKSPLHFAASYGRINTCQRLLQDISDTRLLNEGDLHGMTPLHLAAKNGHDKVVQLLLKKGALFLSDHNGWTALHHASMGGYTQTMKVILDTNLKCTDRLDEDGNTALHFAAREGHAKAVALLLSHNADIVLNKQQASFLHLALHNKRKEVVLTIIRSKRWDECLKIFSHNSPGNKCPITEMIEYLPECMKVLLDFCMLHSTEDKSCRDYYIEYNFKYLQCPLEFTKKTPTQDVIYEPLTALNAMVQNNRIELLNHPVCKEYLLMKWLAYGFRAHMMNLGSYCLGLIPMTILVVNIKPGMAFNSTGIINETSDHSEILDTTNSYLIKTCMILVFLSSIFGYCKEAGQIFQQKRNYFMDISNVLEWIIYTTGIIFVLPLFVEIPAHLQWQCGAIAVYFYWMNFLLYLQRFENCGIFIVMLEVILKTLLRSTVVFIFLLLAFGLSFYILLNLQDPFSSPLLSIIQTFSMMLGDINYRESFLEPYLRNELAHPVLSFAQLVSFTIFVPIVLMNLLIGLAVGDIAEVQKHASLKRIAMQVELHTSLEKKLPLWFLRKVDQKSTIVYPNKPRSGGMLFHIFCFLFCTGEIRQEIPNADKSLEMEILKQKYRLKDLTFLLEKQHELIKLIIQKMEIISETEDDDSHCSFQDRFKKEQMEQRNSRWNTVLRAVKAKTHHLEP
# protocolText: hTRPA1 CHO Ca2+ FLIPR assay (block of cinnamaldehyde induced calcium influx)
# Assay type: cell-based
# cond: CHO cells expressing TRPA1; 75 uM cinnamaldehyde; Hill coefficient fixed to 1.5; read-out: hTRPA1 (hTRPA1 CHO Ca2+ MAX EVO (IC50))
Listed next: entries and their corresponding IC50.
property: IC50 (nM)

{"molecule": "Cc1ncnc2ncn(Cc3nn(CCc4ccc(Cl)cc4)c(=O)o3)c(=O)c12", "assayTarget": "human TRPA1 (Homo sapiens (Human), UniProt O75762)", "measureUnit": "nM", "measValue": 107}
{"molecule": "Cc1ccnc2ncn(Cc3nn([C@@H]4CC[C@@H](c5ccc(F)cc5)C4)c(=O)o3)c(=O)c12 (racemic)", "assayTarget": "human TRPA1 (Homo sapiens (Human), UniProt O75762)", "measureUnit": "nM", "measValue": 4.76}
{"molecule": "Cn1cnc2ncn(Cc3nn(C[C@H](F)c4ccc(OC(F)F)cc4)c(=O)o3)c(=O)c21 (racemic)", "assayTarget": "human TRPA1 (Homo sapiens (Human), UniProt O75762)", "measureUnit": "nM", "measValue": 81.3}
{"molecule": "Cn1cnc2ncn(Cc3nn(CCc4ccc(Cl)cc4)c(=O)o3)c(=O)c21", "assayTarget": "human TRPA1 (Homo sapiens (Human), UniProt O75762)", "measureUnit": "nM", "measValue": 95}
{"molecule": "Cn1cnc2cnn(Cc3nn(CCc4ccc(Cl)cc4)c(=O)o3)c(=O)c21", "assayTarget": "human TRPA1 (Homo sapiens (Human), UniProt O75762)", "measureUnit": "nM", "measValue": 96}
{"molecule": "Cn1cnc2ncn(Cc3nn(C[C@@H]4CCc5ccc(Cl)cc54)c(=O)o3)c(=O)c21", "assayTarget": "human TRPA1 (Homo sapiens (Human), UniProt O75762)", "measureUnit": "nM", "measValue": 196}
{"molecule": "C[C@H](Cn1nc(Cn2cnc3ncn(C)c3c2=O)oc1=O)c1ccc(Cl)cc1", "assayTarget": "human TRPA1 (Homo sapiens (Human), UniProt O75762)", "measureUnit": "nM", "measValue": 34}
{"molecule": "Cn1cnc2ncn(Cc3nn(C[C@H](F)c4ccc(Cl)cc4)c(=O)o3)c(=O)c21", "assayTarget": "human TRPA1 (Homo sapiens (Human), UniProt O75762)", "measureUnit": "nM", "measValue": 34}
